src = patent US20220025003A1

# target.or.system: NS3a (active), Avi-His6-NS3a catalytically active
# run.description: fluorescence polarization; FB50
# measurement.context: chains peptide; modification not given
Ends that are not written are not given here.
quantity.measured: pEC50
Remember the convention: pEC50 equals -log10 of concentration in molar.

Task item: Fill blank: measured pEC50 of the binder GSGSGELDELVYLLDGPGYDPIHSD (not fully specified (N-terminus)) [FAM-ANR] is ____.
Reply: 7.40
